SYSTEM UNDER TEST: UniProt:P17948
Sequence (P17948 whole entry, the tested form may be a part): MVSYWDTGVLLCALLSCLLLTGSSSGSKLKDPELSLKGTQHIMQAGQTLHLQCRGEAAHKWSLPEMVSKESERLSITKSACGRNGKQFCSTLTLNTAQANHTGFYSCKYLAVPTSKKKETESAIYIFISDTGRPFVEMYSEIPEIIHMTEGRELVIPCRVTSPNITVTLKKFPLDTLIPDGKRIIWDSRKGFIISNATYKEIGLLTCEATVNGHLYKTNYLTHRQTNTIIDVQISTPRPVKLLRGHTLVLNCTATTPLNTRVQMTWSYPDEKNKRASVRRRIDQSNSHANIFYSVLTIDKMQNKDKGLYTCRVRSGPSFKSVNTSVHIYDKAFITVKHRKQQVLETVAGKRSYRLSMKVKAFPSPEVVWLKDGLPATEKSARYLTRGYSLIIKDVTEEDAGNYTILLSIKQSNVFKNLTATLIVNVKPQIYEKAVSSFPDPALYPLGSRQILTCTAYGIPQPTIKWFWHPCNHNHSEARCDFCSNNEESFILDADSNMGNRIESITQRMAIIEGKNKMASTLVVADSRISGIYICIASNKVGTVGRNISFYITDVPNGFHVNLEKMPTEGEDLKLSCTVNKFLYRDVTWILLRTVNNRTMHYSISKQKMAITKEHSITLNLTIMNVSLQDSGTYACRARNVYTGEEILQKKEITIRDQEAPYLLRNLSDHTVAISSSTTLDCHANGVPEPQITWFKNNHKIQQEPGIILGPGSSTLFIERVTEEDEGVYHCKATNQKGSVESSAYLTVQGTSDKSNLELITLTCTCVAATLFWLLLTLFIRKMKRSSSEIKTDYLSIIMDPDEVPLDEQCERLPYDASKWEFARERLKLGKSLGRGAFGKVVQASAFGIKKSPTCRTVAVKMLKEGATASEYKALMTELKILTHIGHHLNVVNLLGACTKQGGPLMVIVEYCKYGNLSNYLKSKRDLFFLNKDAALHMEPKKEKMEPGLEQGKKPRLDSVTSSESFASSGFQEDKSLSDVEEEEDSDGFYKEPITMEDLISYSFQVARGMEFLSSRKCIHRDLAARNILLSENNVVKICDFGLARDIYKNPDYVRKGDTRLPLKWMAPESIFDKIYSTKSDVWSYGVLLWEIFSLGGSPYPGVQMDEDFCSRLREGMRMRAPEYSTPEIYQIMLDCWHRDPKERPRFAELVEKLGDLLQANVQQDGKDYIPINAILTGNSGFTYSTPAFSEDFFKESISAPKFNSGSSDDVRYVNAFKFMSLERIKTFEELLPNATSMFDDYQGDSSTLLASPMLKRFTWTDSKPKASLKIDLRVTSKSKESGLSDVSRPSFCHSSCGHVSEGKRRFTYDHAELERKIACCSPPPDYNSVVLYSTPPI
ASSAY DETAILS: Inhibition of recombinant human GST-tagged FLT1 cytoplasmic domain (781 to 1338 residues) expressed in baculovirus expression system at 1 uM using FAM-labeled peptide as substrate after 10 mins by mobility shift assay relative to control
Lab note: compare inhibition against 10%. Equal or greater, write Fulfilled. Smaller, write Not fulfilled.

API: above_or_equal(metric=inhibition, cutoff=10%) for item O=C(O)CCCC(=O)Nc1cc(Nc2cccc(Cl)c2)ncn1
Fulfilled

hey, is inhibition for this one >= 10%? COc1ccc(Nc2cc(NC(=O)c3ccccc3)ncn2)cc1
Not fulfilled

Is reported inhibition greater than or equal to 10% here: O=C(O)CCCC(=O)Nc1cc(N2CCOCC2)ncn1
Not fulfilled

Quick check, inhibition >= 10%? CCOC(=O)c1ccc(Nc2cc(NC(=O)CCCC(=O)O)ncn2)cc1
Not fulfilled

Can COc1cccc(Nc2cc(Nc3cc(OC)ccc3OC)ncn2)c1 be said to have inhibition at or above 10%?
Fulfilled

Textbook exercise: given the entry COc1cccc(Nc2cc(NC(=O)CCCC(=O)O)ncn2)c1 , state whether its inhibition is greater than or equal to 10%.
Fulfilled

====

SYSTEM UNDER TEST: Vascular endothelial growth factor receptor 2 (Homo sapiens)
ASSAY DETAILS: Inhibition of N-terminal GST-tagged human KDR cytoplasmic domain (790 to 1356 residues) expressed in baculovirus expression system at […] using FAM-labeled peptide as substrate after 10 mins by mobility shift assay relative to control
MEASURED ENDPOINT: inhibition (%)
The figure you give is taken to be in %; do not add the unit.

inhibition recorded for this compound, CCOC(=O)c1ccc(Nc2cc(NC(=O)CCC(=O)O)ncn2)cc1 , is 4.9

Lab book: inhibition of CCOc1ccc(Nc2cc(NC(=O)c3ccc(F)cc3)ncn2)cc1 noted as 5.3

inhibition reported for this compound Clc1ccc(Nc2cc(Nc3ccc4[nH]ncc4c3)ncn2)cc1 : -1.4

inhibition reported for this compound O=C(Nc1cc(Nc2cccc(Cl)c2)ncn1)c1ccccc1 : -6.2

Reported inhibition of O=C(Nc1cc(N2CCOCC2)ncn1)c1ccc(F)cc1 : 31

According to the records, this compound COc1ccc(OC)c(Nc2cc(NC(=O)CCCC(=O)O)ncn2)c1 displays inhibition of 23.6

The recorded inhibition for entry O=C(/C=C/c1ccc(F)cc1Br)Nc1cc(Nc2ccc(N3CCOCC3)cc2)ncn1 equals 0.6

The reported value for COc1ccc(OC)c(Nc2cc(Nc3ccc(N4CCN(C)CC4)cc3)ncn2)c1 in terms of inhibition is 28.5

Lookup result for Clc1ccc(Nc2cc(Nc3cccc(Cl)n3)ncn2)cc1 ; measured inhibition: 8.5

COc1cc(Nc2cc(Nc3ccc(Cl)cc3)ncn2)cc(OC)c1OC has a reported inhibition of 37.1

Entry CCOC(=O)CCC(=O)Nc1cc(Nc2ccc(C(=O)OCC)cc2)ncn1 — recorded inhibition = 6.5

Reported inhibition ( O=C(O)CCC(=O)Nc1cc(Nc2cccc(Br)c2)ncn1 ) = 19.2

In plain terms, COc1cccc(Nc2cc(Nc3cccc(Cl)c3)ncn2)c1 has a documented inhibition of 19.2

Consider CCOC(=O)c1ccc(Nc2cc(Nc3cccc(OC)c3)ncn2)cc1 . Its measured inhibition is 11.7

response.value for CCOC(=O)CCCC(=O)Nc1cc(Nc2cc(OC)ccc2OC)ncn1 (field: inhibition) = 0.9

Value of measured inhibition for the entry CCOC(=O)CCC(=O)Nc1cc(NCCc2cccs2)ncn1 : 13.6

inhibition recorded for this compound, Fc1ccc(Nc2cc(Nc3ccc(Cl)cc3)ncn2)cc1 , is 6.1

Please fill in: inhibition reported for CCOC(=O)CCC(=O)Nc1cc(Nc2cccc(Br)c2)ncn1 = 5.7

Briefly, inhibition measured for O=C(Nc1cc(N2CCOCC2)ncn1)c1ccccc1 : 10.1

inhibition for CCOC(=O)c1ccc(Nc2cc(NC(=O)CCCC(=O)O)ncn2)cc1 is -1.4

Short answer for O=C(Nc1cc(Nc2ccc(Cl)cc2)ncn1)c1ccc(F)cc1 : inhibition was 9.3

Measured inhibition of CC(C)OC(=O)CCC(=O)Nc1cc(Nc2ccc(F)cc2)ncn1 : 2.5

# inhibition of COc1ccc(OC)c(Nc2cc(Nc3ccc(F)cc3)ncn2)c1 = 12.4

Sure, the documented inhibition for COc1cccc(Nc2cc(Nc3ccc(Cl)cc3)ncn2)c1 is 12.8

The recorded inhibition for entry CCOC(=O)CCC(=O)Nc1cc(Nc2ccc(N3CCN(C)CC3)cc2)ncn1 equals 4.9

Lookup result for O=C(/C=C/c1ccc(F)cc1)Nc1cc(Nc2ccc(N3CCOCC3)cc2)ncn1 ; measured inhibition: 1.3

Noted for COc1ccc(/C=C/C(=O)Nc2cc(Nc3cccc(Br)c3)ncn2)cc1 : its inhibition reads 8.5

inhibition in this record for O=C(O)CCCC(=O)Nc1cc(Nc2cccc(Cl)c2)ncn1 : 8.5

// inhibition lookup, compound = CC(C)OC(=O)CCC(=O)Nc1cc(Nc2ccc(C(=O)OC(C)C)cc2)ncn1 , result: 4.9

Quick note, inhibition for COc1ccc(/C=C/C(=O)Nc2cc(N3CCOCC3)ncn2)cc1 landed at 7.3

// recorded inhibition for CN1CCN(c2ccc(Nc3cc(NC(=O)CCC(=O)O)ncn3)cc2)CC1 : 18.8

Sample O=C(/C=C/c1ccc(F)cc1)Nc1cc(Nc2ccc(Cl)cc2)ncn1 ; inhibition observed: 10.1

Entry CCOC(=O)CCC(=O)Nc1cc(Nc2ccc(Cl)cc2)ncn1 ; inhibition = 22.5

GET /value?item= COc1ccc(Nc2cc(NC(=O)/C=C/c3ccccc3)ncn2)c([N+](=O)[O-])c1 &field=inhibition returns 2.5

Consider O=C(O)CCCC(=O)Nc1cc(Nc2ccccc2)ncn1 . Its measured inhibition is 4.9

Looking up CCOc1ccc(Nc2cc(NC(=O)c3ccccc3)ncn2)cc1 , I found its inhibition recorded as 11.3

The compound listed as CCOC(=O)CCC(=O)Nc1cc(Nc2cccc(OC)c2)ncn1 shows inhibition equal to 11.3

The reported value for CCOC(=O)CCC(=O)Nc1cc(Nc2cccc(C(=O)OCC)c2)ncn1 in terms of inhibition is 19.7

Data point: CCNc1cc(Nc2cc(OC)ccc2OC)ncn1 ; inhibition = 34.5

Lab note: measured inhibition of CCOc1ccc(Nc2cc(NC(=O)/C=C/c3ccc(OC)cc3)ncn2)cc1 was 20.4

Input COc1ccc(Nc2cc(NC(=O)/C=C/c3ccccc3)ncn2)cc1 . Output inhibition: 9.3

So, Clc1ccc(Nc2cc(Nc3ccc(Cl)cc3)ncn2)cc1 ? Its inhibition was 8.5

Reported inhibition of COc1ccc(/C=C/C(=O)Nc2cc(Nc3ccc(Cl)cc3Cl)ncn2)cc1 : 6.1

Note to self: inhibition recorded for O=C(/C=C/c1ccc(F)cc1Br)Nc1cc(N2CCOCC2)ncn1 was 5.7

According to the records, this compound CCOC(=O)CC(=O)Nc1cc(Nc2ccc(F)cc2)ncn1 displays inhibition of 1.7

get_value(item= COc1ccc(OC)c(Nc2cc(Nc3ccc(S(N)(=O)=O)cc3)ncn2)c1 , readout=inhibition) returns 26.2

====

SYSTEM UNDER TEST: Receptor tyrosine-protein kinase erbB-4 (Homo sapiens)
ASSAY DETAILS: Inhibition of N-terminal GST-tagged human HER4 cytoplasmic domain (676 to 1308 residues) expressed in baculovirus expression system at 1 uM using FAM-labeled peptide as substrate after 10 mins by mobility shift assay relative to control
Assign inhibition to each entry below.
Only the number, expressed in %, is required.

Data point: COc1cccc(Nc2cc(NC(=O)CCCC(=O)O)ncn2)c1 ; inhibition = 21.7

Sure, the documented inhibition for COc1cccc(Nc2cc(Nc3cc(OC)ccc3OC)ncn2)c1 is 11.3

Input COc1ccc(Nc2cc(NC(=O)c3ccccc3)ncn2)cc1 . Output inhibition: 71.4

Looking up O=C(O)CCCC(=O)Nc1cc(N2CCOCC2)ncn1 , I found its inhibition recorded as 8.3

Entry O=C(O)CCCC(=O)Nc1cc(Nc2cccc(Cl)c2)ncn1 — recorded inhibition = 88.6

Form field inhibition, entry CCOC(=O)c1ccc(Nc2cc(NC(=O)CCCC(=O)O)ncn2)cc1 : 27.1

====

Provide the reported inhibition of each item.
SYSTEM UNDER TEST: Platelet-derived growth factor receptor beta (Homo sapiens) (UniProt P09619)
Sequence (P09619 whole entry, the tested form may be a part): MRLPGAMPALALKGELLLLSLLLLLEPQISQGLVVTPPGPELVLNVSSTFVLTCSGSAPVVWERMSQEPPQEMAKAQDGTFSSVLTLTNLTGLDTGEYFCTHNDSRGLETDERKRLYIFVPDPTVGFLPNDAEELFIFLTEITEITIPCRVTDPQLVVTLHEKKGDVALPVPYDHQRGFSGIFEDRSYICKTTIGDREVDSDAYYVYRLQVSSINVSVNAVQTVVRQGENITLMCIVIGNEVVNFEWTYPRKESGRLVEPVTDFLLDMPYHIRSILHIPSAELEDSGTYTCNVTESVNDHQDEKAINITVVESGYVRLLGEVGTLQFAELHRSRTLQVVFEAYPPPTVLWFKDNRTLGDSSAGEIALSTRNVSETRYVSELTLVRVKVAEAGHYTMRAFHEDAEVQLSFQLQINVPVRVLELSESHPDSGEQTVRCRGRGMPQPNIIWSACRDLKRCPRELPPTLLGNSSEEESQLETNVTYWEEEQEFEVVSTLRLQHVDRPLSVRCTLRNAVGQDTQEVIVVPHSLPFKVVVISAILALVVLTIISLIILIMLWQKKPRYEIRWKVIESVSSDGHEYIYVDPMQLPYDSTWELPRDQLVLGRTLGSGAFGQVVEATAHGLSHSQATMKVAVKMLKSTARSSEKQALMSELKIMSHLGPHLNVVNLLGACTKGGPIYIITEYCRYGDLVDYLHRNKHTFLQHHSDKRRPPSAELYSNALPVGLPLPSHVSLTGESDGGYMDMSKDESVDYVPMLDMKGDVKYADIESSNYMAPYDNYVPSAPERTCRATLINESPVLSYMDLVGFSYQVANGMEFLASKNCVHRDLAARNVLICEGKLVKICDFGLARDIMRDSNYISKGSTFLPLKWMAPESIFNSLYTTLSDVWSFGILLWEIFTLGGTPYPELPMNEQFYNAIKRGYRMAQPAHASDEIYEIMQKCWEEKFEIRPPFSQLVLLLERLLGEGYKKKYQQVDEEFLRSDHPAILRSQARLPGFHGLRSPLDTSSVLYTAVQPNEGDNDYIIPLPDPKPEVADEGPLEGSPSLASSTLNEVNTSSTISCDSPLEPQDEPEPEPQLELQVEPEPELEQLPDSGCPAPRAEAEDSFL
ASSAY DETAILS: Inhibition of N-terminal GST-tagged human PDGFRbeta cytoplasmic domain (557 to 1106 residues) expressed in baculovirus expression system at 1 uM using FAM-labeled peptide as substrate after 10 mins by mobility shift assay relative to control
All answers are understood in %, so give the number only.

Record O=C(O)CCCC(=O)Nc1cc(N2CCOCC2)ncn1 . Reported inhibition: 10

Entry under test: CCOC(=O)c1ccc(Nc2cc(NC(=O)CCCC(=O)O)ncn2)cc1 . Its inhibition was 24.2

O=C(O)CCCC(=O)Nc1cc(Nc2cccc(Cl)c2)ncn1 has a reported inhibition of 74.1

Entry COc1ccc(Nc2cc(NC(=O)c3ccccc3)ncn2)cc1 , inhibition reported as 29.4

inhibition recorded for this molecule, COc1cccc(Nc2cc(NC(=O)CCCC(=O)O)ncn2)c1 , is 10.3

Record COc1cccc(Nc2cc(Nc3cc(OC)ccc3OC)ncn2)c1 . Reported inhibition: 30.4
